# measuredOn: T1, HLA-DRB1*0401 (human)
# T1 chain 1: not shown
# T1 chain 2: not shown
# assayDetails: competition with 125I probe peptide, purified HLA
# assayContext: remark: other sources report otherwise

>  <binder>
GVTVWELMTFGAKPY [Her2/neu.909]

>  <IC50 (nM)>
1360

$$$$
